B1: LINE1-full (parent)
chain: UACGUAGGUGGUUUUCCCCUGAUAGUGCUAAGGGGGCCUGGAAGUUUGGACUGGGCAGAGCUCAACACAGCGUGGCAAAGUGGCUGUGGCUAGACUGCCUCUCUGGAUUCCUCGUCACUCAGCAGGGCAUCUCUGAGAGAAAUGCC

variants of: B1; assay: self-cleavage, relative activity (ratio to wild type); higher = more cleavage; in vitro, sequencing; the parent is a self-cleaving ribozyme
readout_label: self-cleavage
Returns: the value as a bare number; no unit string appended.

Example cases with answers are listed next.
mutation_spec	reading
U13A U39C	0.61
A30U U73A	2.55
U45G U87C	0.25
A43G A94U	0.16
A57C U96A	0.01

I would be grateful if you could share the reported self-cleavage for U15A U87A .
0.08

Continue with U47G C111U
1.62

Continue with A22G A77U
0.79

Continue with U132A A141U
0.14

Continue with U130C A141G
1.55

Continue with C3A A78G
0.64

Continue with U14C U109G
0.65

Continue with A30U A94U
0.34

Continue with A31U U47A
0.77

Continue with U23A A57G
0.94

Continue with U46C A117U
1.78

Continue with C120U U132C
1.56

Continue with U81C C95U
0.26

Continue with U13A A129U
0.81

Continue with A79G U81A
2.28

Continue with U62C G122C
0.03

Continue with U87A G127A
0.04

Continue with G10A U52A
0.97

Ref: the RNAGym collection of RNA variant scans (doi:10.7554/elife.90254)
